Collected literature values of Ki measured for Metabotropic glutamate receptor 5 (Rattus norvegicus, UniProt P31424).

Some solved cases for reference:
1. Cc1ccc(S(=O)(=O)c2cnc3cc4c(cc3c2N2CCC(C)CC2)OCCO4)cc1 : > 500 nM
2. O=S(=O)(c1cccc(F)c1)c1cnc2cc(F)ccc2c1-c1ccc(Cl)cc1 : < 200 nM
3. Cc1ccc(S(=O)(=O)c2cnc3ccc(C)cc3c2N2CCOCC2)cc1 : > 500 nM
4. COc1ccc(S(=O)(=O)c2sc3ncccc3c2-c2ccc(F)cc2)cc1F : < 500 nM
5. O=S(=O)(c1ccc(F)c(Cl)c1)c1cnc2ccc(F)cc2c1-c1ccc(Cl)cc1 : < 200 nM

Data request: Return Ki measured with Metabotropic glutamate receptor 5 (Rattus norvegicus, UniProt P31424) given this compound: COc1cccc(-c2c(S(=O)(=O)c3cc(F)cc(F)c3)cnc3c(F)cccc23)c1
Data returned: < 200 nM

Data request: What do you get for CCc1ccc2ncc(S(=O)(=O)c3ccccc3)c(N3CCCC3)c2c1 ?
Data returned: > 500 nM

Data request: What do you get for CCc1ccc2ncc(S(=O)(=O)c3ccc(Cl)cc3)c(N(CC)CC)c2c1 ?
Data returned: > 500 nM

Data request: What do you get for O=S(=O)(c1ccc(F)cc1)c1cnc2c(F)cccc2c1-c1cccc(F)c1 ?
Data returned: < 200 nM

Data request: What do you get for Cc1ccc2ncc(S(=O)(=O)c3ccccc3)c(N3CCN(Cc4ccccc4)CC3)c2c1 ?
Data returned: > 500 nM

Data request: What do you get for O=C(c1ccc(Cl)c(C#Cc2ccccn2)c1)N1CCc2ccccc2C1 ?
Data returned: 0.4 nM

====

Collected literature values of Ki measured for Metabotropic glutamate receptor 5 (Rattus norvegicus, UniProt P31424).

1) O=C(Cc1ccc(F)cc1)c1sc2ncccc2c1-c1ccc(Cl)cc1 : < 500 nM
2) CC1CCN(c2c(S(=O)(=O)c3ccc(F)c(F)c3)cnc3cc(F)ccc23)CC1 : < 200 nM
3) COc1ccc(-c2c(S(=O)(=O)c3ccc(OC)c(OC)c3)cnc3ccc(F)cc23)cc1 : > 500 nM

Data request: Return Ki measured with Metabotropic glutamate receptor 5 (Rattus norvegicus, UniProt P31424) given this molecule: COc1ccc(C(=O)N2Cc3cccc(F)c3C2)cc1C#Cc1ccccn1
Data returned: 6 nM

====

Collected literature values of pKi measured for Metabotropic glutamate receptor 5 (Rattus norvegicus).
pKi: −log10 of the molar value.

Some solved cases for reference:
1. Cc1ccc(S(=O)(=O)c2cnc3cc(Cl)ccc3c2N2CCOCC2)cc1C : > 6.70
2. Cc1ccc(-c2c(S(=O)(=O)c3ccc(C)cc3)sc3ncccc23)cc1 : > 6.30

Data request: Reported pKi for COc1ccc(C(=O)N2CCOc3ccccc3C2)cc1C#Cc1ccccn1 : what is it?
Data returned: 7.54

Data request: What do you get for COc1ccc(-c2c(S(=O)(=O)c3cc(F)cc(F)c3)cnc3c(F)cccc23)cc1 ?
Data returned: > 6.70

Data request: What do you get for COc1ccc(C(=O)N2CCc3[nH]c4ccccc4c3C2)cc1C#Cc1ccccn1 ?
Data returned: 8.10

Data request: What do you get for CC1CCN(c2c(S(=O)(=O)c3ccc(Cl)cc3)cnc3ccc(F)cc23)CC1 ?
Data returned: > 6.70

Data request: What do you get for O=S(=O)(c1ccc(Cl)cc1)c1cnc2ccc(Cl)cc2c1N1CCOCC1 ?
Data returned: < 6.30

Data request: What do you get for N#Cc1cc(F)cc(S(=O)(=O)c2cnc3cc(Cl)ccc3c2-c2ccc(F)cc2)c1 ?
Data returned: > 6.70
